biological target: panel of 442 kinases (Homo sapiens, UniProt Q9HBH9); construct: purchased KINOMEscan; assay type: binding; settings: Compound Concentration 10 µM
Recorded KINOMEscan: MKNK2 values for a group of molecules are listed next.
Response field accepts a number only; no unit should be typed.

COc1cc(C(=O)N2CCC(N3CCN(C)CC3)CC2)ccc1Nc1ncc2c(n1)N(C)c1ccccc1C(=O)N2C = 1.2

### Prompt I am curious: what KINOMEscan: MKNK2 value has been reported for "CCOc1cc(C(=O)N2CCC(N3CCN(C)CC3)CC2)ccc1Nc1ncc2c(n1)N(C1CCCC1)c1ccccc1C(=O)N2C" ?
### Response 100

### Prompt # get_value(readout='KINOMEscan: MKNK2', item= "COc1cc(C(=O)N2CCC(N3CCN(C)CC3)CC2)ccc1Nc1ncc2c(n1)N1CCc3cccc(c31)C(=O)N2C" )
### Response 8.6

### Prompt What does the data say about its KINOMEscan: MKNK2? Entry: "COc1cc(C(=O)N2CCC(N3CCN(C)CC3)CC2)ccc1Nc1ncc2c(n1)N(C1CCCC1)c1ccccc1C(=O)N2C"
### Response 100

----------
target: panel of 442 kinases (Homo sapiens, UniProt Q12852); construct: purchased KINOMEscan; format: binding; settings: Compound Concentration 10 µM
Sequence (Q12852 whole entry): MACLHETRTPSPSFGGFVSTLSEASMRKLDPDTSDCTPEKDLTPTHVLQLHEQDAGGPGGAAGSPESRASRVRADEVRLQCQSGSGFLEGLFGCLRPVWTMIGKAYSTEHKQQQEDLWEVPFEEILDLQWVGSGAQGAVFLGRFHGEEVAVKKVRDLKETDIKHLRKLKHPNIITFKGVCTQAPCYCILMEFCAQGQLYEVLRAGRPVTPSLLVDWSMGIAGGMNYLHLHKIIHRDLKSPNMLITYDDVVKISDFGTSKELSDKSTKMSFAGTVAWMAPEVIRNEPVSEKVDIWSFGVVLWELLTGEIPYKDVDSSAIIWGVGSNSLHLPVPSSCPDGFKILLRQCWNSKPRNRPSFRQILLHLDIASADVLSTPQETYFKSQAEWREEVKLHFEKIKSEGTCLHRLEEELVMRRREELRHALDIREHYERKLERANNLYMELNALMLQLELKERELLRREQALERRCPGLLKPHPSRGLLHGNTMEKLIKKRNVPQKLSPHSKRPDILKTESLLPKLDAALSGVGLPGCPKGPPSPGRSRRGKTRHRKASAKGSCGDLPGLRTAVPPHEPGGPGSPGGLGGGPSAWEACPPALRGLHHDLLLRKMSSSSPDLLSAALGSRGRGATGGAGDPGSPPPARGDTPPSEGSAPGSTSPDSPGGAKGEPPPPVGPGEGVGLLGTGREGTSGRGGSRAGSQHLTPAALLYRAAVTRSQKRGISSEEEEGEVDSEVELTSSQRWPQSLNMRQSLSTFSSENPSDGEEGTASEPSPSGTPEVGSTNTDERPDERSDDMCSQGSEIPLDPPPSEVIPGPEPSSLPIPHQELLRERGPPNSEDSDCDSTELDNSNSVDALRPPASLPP
observed.property: KINOMEscan: DLK
API doc: respond with a numeric literal and nothing else, no unit.

COc1cc(C(=O)N2CCC(N3CCN(C)CC3)CC2)ccc1Nc1ncc2c(n1)N(C1CCCC1)c1ccccc1C(=O)N2C = 62

### Prompt KINOMEscan: DLK lookup needed for "COc1cc(C(=O)N2CCC(N3CCN(C)CC3)CC2)ccc1Nc1ncc2c(n1)N(C)c1ccccc1C(=O)N2C" , thanks.
### Response 81

### Prompt Quick one: KINOMEscan: DLK for "COc1cc(C(=O)N2CCC(N3CCN(C)CC3)CC2)ccc1Nc1ncc2c(n1)N1CCc3cccc(c31)C(=O)N2C" ?
### Response 78

### Prompt # KINOMEscan: DLK lookup, item "CCOc1cc(C(=O)N2CCC(N3CCN(C)CC3)CC2)ccc1Nc1ncc2c(n1)N(C1CCCC1)c1ccccc1C(=O)N2C"
### Response 100

----------
biological target: panel of 442 kinases (Homo sapiens); construct: purchased KINOMEscan; type: binding; conditions: Compound Concentration 10 µM
observed.property: KINOMEscan: PIP5K1C
Reply with just the number.

Sample answers from the record:
COc1cc(C(=O)N2CCC(N3CCN(C)CC3)CC2)ccc1Nc1ncc2c(n1)N(C1CCCC1)c1ccccc1C(=O)N2C = 100
COc1cc(C(=O)N2CCC(N3CCN(C)CC3)CC2)ccc1Nc1ncc2c(n1)N1CCc3cccc(c31)C(=O)N2C = 6.3
COc1cc(C(=O)N2CCC(N3CCN(C)CC3)CC2)ccc1Nc1ncc2c(n1)N(C)c1ccccc1C(=O)N2C = 96

Proceed to the following item.
### Prompt Field request: KINOMEscan: PIP5K1C | item: "CCOc1cc(C(=O)N2CCC(N3CCN(C)CC3)CC2)ccc1Nc1ncc2c(n1)N(C1CCCC1)c1ccccc1C(=O)N2C"
### Response 100

----------
target: panel of 442 kinases (Homo sapiens, UniProt P42336, E545A); construct: purchased KINOMEscan; assay type: binding; conditions: Compound Concentration 10 µM
Sequence (P42336 whole entry E545A): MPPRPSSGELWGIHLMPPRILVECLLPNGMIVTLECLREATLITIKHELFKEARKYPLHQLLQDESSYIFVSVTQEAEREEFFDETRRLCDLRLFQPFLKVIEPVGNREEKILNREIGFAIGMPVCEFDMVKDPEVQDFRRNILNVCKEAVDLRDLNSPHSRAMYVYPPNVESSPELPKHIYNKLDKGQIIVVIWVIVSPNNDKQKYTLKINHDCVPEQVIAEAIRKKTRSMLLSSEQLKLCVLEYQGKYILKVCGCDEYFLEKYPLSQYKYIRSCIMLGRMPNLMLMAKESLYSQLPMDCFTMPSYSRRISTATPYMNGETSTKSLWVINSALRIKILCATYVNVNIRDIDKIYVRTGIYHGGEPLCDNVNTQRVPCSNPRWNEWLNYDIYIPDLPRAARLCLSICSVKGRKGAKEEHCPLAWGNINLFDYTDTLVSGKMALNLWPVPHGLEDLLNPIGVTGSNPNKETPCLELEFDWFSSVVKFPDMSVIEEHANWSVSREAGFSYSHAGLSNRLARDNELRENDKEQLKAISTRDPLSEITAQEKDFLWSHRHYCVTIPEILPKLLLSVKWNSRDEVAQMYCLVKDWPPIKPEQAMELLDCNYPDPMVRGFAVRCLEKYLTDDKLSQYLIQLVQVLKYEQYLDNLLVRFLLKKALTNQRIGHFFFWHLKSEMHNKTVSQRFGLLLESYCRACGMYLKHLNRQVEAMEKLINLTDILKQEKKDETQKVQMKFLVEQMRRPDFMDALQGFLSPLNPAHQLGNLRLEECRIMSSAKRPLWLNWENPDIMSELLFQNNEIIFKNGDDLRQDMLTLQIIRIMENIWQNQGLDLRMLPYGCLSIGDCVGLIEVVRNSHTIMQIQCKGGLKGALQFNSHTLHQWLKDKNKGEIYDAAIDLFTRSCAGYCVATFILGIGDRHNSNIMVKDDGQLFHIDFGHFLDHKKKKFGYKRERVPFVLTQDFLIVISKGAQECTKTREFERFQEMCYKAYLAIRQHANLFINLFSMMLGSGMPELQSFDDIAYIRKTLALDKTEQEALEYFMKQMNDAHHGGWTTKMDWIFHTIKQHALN
observed.property: KINOMEscan: PIK3CA(E545A)
Form field (numeric): enter value without unit.

### Prompt What does the record list as KINOMEscan: PIK3CA(E545A) for COc1cc(C(=O)N2CCC(N3CCN(C)CC3)CC2)ccc1Nc1ncc2c(n1)N(C)c1ccccc1C(=O)N2C [15 (LRRK2-IN-1)] ?
### Response 98

### Prompt Tell me the measured KINOMEscan: PIK3CA(E545A) of COc1cc(C(=O)N2CCC(N3CCN(C)CC3)CC2)ccc1Nc1ncc2c(n1)N1CCc3cccc(c31)C(=O)N2C [Compound 24] , please.
### Response 68

### Prompt Name the recorded KINOMEscan: PIK3CA(E545A) for COc1cc(C(=O)N2CCC(N3CCN(C)CC3)CC2)ccc1Nc1ncc2c(n1)N(C1CCCC1)c1ccccc1C(=O)N2C [Compound 25] .
### Response 85

### Prompt Can you share its KINOMEscan: PIK3CA(E545A)? I mean this compound: CCOc1cc(C(=O)N2CCC(N3CCN(C)CC3)CC2)ccc1Nc1ncc2c(n1)N(C1CCCC1)c1ccccc1C(=O)N2C [Compound 26]
### Response 91

----------
molecular target: panel of 442 kinases (Homo sapiens, UniProt Q13163); construct: purchased KINOMEscan; format: binding; settings: Compound Concentration 10 µM
Sequence (Q13163 whole entry): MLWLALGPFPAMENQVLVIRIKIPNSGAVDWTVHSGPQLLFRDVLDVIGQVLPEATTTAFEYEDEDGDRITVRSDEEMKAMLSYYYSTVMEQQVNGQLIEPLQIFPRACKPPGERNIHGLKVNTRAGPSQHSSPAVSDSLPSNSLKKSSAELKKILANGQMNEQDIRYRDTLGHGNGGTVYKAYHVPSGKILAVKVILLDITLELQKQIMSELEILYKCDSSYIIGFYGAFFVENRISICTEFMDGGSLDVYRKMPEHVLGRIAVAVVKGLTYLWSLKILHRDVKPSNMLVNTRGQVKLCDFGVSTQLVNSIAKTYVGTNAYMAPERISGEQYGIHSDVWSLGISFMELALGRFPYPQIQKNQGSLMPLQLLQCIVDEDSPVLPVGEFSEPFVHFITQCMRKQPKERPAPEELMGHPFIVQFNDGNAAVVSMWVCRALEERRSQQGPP
observed.property: KINOMEscan: MEK5
Please reply with the value in numeric form only.

Known KINOMEscan: MEK5 results, listed for orientation:
COc1cc(C(=O)N2CCC(N3CCN(C)CC3)CC2)ccc1Nc1ncc2c(n1)N1CCc3cccc(c31)C(=O)N2C = 28
CCOc1cc(C(=O)N2CCC(N3CCN(C)CC3)CC2)ccc1Nc1ncc2c(n1)N(C1CCCC1)c1ccccc1C(=O)N2C = 100
COc1cc(C(=O)N2CCC(N3CCN(C)CC3)CC2)ccc1Nc1ncc2c(n1)N(C)c1ccccc1C(=O)N2C = 85

Would you kindly look at the next entry?
### Prompt Record "COc1cc(C(=O)N2CCC(N3CCN(C)CC3)CC2)ccc1Nc1ncc2c(n1)N(C1CCCC1)c1ccccc1C(=O)N2C" : what is its KINOMEscan: MEK5 with panel of 442 kinases (Homo sapiens, UniProt Q13163)?
### Response 83

----------
target: panel of 442 kinases (Homo sapiens, UniProt Q16288); construct: purchased KINOMEscan; format: binding; conditions: kinase TRKC; compound concentration 10 µM
Sequence (Q16288 32-839): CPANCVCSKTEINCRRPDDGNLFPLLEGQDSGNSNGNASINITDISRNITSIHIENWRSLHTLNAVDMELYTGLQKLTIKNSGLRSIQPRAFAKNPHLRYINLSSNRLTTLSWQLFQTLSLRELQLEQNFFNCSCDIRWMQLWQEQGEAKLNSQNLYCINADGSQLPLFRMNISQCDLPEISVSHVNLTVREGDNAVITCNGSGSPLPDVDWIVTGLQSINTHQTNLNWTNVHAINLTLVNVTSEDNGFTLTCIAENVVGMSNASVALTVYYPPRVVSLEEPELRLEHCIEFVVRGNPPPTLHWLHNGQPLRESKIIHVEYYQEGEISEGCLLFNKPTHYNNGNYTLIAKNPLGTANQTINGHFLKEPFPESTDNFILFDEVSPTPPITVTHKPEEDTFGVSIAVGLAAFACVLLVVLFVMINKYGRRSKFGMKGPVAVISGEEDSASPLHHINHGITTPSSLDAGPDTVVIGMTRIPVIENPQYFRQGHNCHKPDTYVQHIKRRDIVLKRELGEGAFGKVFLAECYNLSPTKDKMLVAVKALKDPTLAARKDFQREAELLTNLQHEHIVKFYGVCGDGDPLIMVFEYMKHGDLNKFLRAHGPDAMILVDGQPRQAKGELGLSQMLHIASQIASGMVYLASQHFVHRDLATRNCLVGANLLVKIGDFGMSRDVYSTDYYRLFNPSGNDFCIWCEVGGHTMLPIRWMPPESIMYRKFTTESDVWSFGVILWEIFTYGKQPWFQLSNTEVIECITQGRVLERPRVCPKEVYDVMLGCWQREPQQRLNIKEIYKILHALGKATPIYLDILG
observed.property: % Ctrl, TRKC (% Ctrl)
Could you give me the number in % Ctrl? Just the number is fine.

Consider the reported % Ctrl, TRKC for these compounds:
CCOc1cc(C(=O)N2CCC(N3CCN(C)CC3)CC2)ccc1Nc1ncc2c(n1)N(C1CCCC1)c1ccccc1C(=O)N2C [Compound 26] = 90
COc1cc(C(=O)N2CCC(N3CCN(C)CC3)CC2)ccc1Nc1ncc2c(n1)N1CCc3cccc(c31)C(=O)N2C [Compound 24] = 100
COc1cc(C(=O)N2CCC(N3CCN(C)CC3)CC2)ccc1Nc1ncc2c(n1)N(C1CCCC1)c1ccccc1C(=O)N2C [Compound 25] = 100

# ---- query compound ----
### Prompt What value of % Ctrl, TRKC has been recorded for this entry: COc1cc(C(=O)N2CCC(N3CCN(C)CC3)CC2)ccc1Nc1ncc2c(n1)N(C)c1ccccc1C(=O)N2C [15 (LRRK2-IN-1)]
### Response 100

----------
target: ERK5 (Homo sapiens, UniProt Q13164); assay: ERK5 kinase activity in vitro assay (32P-ATP, PIMtide substrate); conditions: in vitro assay, recombinant active ERK5; read-out: Enzymatic IC50 (ERK5)
Sequence (Q13164 whole entry): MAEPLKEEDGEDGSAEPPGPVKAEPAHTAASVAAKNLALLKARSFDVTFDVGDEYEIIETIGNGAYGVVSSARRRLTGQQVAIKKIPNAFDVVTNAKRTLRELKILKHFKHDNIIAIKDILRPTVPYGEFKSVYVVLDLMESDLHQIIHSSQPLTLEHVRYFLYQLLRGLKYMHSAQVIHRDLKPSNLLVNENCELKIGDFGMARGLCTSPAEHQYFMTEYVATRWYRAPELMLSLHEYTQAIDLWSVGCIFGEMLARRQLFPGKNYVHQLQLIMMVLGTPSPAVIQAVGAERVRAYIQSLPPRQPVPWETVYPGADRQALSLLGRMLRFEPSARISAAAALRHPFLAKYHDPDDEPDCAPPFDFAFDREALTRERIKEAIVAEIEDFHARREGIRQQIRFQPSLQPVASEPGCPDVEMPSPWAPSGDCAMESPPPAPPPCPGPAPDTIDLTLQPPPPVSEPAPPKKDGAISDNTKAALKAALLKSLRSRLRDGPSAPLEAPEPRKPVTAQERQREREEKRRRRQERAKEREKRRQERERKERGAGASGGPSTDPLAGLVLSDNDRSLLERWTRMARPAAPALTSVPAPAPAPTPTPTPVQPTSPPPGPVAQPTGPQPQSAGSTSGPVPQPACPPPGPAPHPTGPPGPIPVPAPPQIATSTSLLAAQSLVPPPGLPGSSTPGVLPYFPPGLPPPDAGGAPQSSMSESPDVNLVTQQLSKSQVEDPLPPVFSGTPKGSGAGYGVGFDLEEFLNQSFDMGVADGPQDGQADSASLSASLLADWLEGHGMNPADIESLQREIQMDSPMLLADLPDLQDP
Property: pIC50; scope: individual molecules
// returns pIC50 (minus log10 of molar concentration), number only

CC(C)Oc1cc(N2CCC(O)CC2)ccc1Nc1ncc2c(n1)N(C)c1ccccc1C(=O)N2C = 5.82
CN1C(=O)c2ccccc2N(C)c2nc(Nc3ccc(S(N)(=O)=O)cc3)ncc21 = 6.77
COc1cc(N2CCOCC2)ccc1Nc1ncc2c(n1)N(C)c1ccccc1C(=O)N2C = 6.63

From here, focus on the item given below.
### Prompt Give the measured pIC50 of "COc1cc(N2CCN(C)CC2)ccc1Nc1ncc2c(n1)N(C)c1cc(C)ccc1C(=O)N2C" .
### Response 5.61

----------
target: panel of 442 kinases (Homo sapiens, UniProt P42336, H1047L); construct: purchased KINOMEscan; assay type: binding; settings: Compound Concentration 10 µM
Sequence (P42336 whole entry H1047L): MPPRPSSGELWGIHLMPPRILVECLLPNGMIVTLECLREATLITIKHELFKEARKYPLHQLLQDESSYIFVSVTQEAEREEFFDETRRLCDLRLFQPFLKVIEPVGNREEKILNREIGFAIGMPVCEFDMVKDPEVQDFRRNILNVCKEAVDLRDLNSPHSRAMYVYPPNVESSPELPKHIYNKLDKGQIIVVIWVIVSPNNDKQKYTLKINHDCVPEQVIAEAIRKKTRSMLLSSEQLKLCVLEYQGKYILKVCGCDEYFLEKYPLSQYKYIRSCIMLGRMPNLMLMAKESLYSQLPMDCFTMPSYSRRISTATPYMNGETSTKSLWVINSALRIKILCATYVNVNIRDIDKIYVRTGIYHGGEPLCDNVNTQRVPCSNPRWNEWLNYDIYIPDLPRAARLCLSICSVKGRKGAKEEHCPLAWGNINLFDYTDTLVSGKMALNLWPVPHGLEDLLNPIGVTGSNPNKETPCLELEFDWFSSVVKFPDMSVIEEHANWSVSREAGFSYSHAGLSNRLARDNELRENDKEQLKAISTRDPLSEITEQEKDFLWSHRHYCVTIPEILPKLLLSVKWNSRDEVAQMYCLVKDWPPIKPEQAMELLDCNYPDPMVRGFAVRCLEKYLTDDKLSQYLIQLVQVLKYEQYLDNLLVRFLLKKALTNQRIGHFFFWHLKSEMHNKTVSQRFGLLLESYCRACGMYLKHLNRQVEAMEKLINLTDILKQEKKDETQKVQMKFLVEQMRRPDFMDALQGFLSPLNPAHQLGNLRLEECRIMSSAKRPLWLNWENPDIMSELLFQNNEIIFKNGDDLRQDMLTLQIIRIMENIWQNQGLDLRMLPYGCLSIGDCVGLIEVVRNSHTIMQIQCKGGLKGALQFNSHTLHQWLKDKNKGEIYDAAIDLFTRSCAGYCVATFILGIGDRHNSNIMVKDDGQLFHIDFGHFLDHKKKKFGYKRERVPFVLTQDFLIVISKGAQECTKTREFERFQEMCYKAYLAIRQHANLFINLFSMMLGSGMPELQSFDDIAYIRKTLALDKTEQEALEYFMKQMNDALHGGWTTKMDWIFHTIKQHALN
observed.property: KINOMEscan: PIK3CA(H1047L)
# answer = number (no unit)

COc1cc(C(=O)N2CCC(N3CCN(C)CC3)CC2)ccc1Nc1ncc2c(n1)N(C1CCCC1)c1ccccc1C(=O)N2C [Compound 25] = 100

### Prompt # lookup: KINOMEscan: PIK3CA(H1047L) of COc1cc(C(=O)N2CCC(N3CCN(C)CC3)CC2)ccc1Nc1ncc2c(n1)N(C)c1ccccc1C(=O)N2C [15 (LRRK2-IN-1)]
### Response 20

### Prompt Data request, read-out KINOMEscan: PIK3CA(H1047L), for CCOc1cc(C(=O)N2CCC(N3CCN(C)CC3)CC2)ccc1Nc1ncc2c(n1)N(C1CCCC1)c1ccccc1C(=O)N2C [Compound 26]
### Response 90

### Prompt Find the recorded KINOMEscan: PIK3CA(H1047L) belonging to COc1cc(C(=O)N2CCC(N3CCN(C)CC3)CC2)ccc1Nc1ncc2c(n1)N1CCc3cccc(c31)C(=O)N2C [Compound 24] and report it.
### Response 94

----------
Molecular target: panel of 442 kinases (Homo sapiens)
Construct: purchased KINOMEscan
Sequence (Q96BR1 1-496): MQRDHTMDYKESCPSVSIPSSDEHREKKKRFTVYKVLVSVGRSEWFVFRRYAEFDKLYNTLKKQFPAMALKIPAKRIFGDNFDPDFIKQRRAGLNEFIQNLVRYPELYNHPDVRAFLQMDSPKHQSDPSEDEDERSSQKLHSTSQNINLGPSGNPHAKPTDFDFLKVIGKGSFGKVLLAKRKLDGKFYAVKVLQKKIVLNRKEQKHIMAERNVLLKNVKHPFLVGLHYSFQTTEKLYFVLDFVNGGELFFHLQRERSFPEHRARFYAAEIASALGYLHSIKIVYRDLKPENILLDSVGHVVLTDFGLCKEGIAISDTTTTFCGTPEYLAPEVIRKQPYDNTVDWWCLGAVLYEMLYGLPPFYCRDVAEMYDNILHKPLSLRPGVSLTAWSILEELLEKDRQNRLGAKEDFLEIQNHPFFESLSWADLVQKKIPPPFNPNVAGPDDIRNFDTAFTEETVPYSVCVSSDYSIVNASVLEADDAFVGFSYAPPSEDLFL
Format: binding
Settings: kinase SGK3; compound concentration 10 µM
observed.property: % Ctrl, SGK3 (% Ctrl)
Field: numeric (% Ctrl). Do not append units.

COc1cc(C(=O)N2CCC(N3CCN(C)CC3)CC2)ccc1Nc1ncc2c(n1)N(C)c1ccccc1C(=O)N2C = 95
COc1cc(C(=O)N2CCC(N3CCN(C)CC3)CC2)ccc1Nc1ncc2c(n1)N(C1CCCC1)c1ccccc1C(=O)N2C = 100
CCOc1cc(C(=O)N2CCC(N3CCN(C)CC3)CC2)ccc1Nc1ncc2c(n1)N(C1CCCC1)c1ccccc1C(=O)N2C = 83

Query molecule follows.
### Prompt Query for panel of 442 kinases (Homo sapiens): what % Ctrl, SGK3 does the record show for "COc1cc(C(=O)N2CCC(N3CCN(C)CC3)CC2)ccc1Nc1ncc2c(n1)N1CCc3cccc(c31)C(=O)N2C" ?
### Response 100
